TESTED_TARGET: mouse NMUR2 (Mus musculus)
Sequence (Q8BZ39 whole entry): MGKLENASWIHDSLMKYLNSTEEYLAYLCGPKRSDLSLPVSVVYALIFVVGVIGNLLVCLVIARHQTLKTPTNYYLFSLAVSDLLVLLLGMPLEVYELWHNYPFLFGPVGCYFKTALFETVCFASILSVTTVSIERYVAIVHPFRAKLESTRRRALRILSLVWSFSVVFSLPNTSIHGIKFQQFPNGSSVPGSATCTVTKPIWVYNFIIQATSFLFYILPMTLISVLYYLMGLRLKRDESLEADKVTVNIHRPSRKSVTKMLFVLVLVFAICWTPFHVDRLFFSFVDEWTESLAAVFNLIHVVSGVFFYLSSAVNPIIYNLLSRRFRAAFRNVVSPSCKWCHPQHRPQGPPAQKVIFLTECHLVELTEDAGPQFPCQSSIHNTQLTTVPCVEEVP
PROTOCOL_DETAILS: FLIPR calcium mobilization assay, mouse NMUR2
Assay type: cell-based
Design: expressed in transfected cells; host or cells: FLP-In CHO or HEK-293 FLP-In cells (pcDNA5)
CONDITIONS: maximum response at 1 μM compared to hNMU-25; mouse NMUR2
Starred links: 1 amine or outer side, 2 acyl side, 3 side chain; linkers in the order of their positions; H or OH if unused. Residues, ends and D or L forms follow the SMILES beside them. *: point of attachment. X1 = CC(C)CCC[C@@H](C)[C@H]1CC[C@H]2[C@@H]3CC=C4C[C@@H](OC(=O)C*)CC[C@]4(C)[C@H]3CC[C@]12C; X2 = CCN1C(=O)CC(SC[C@H](NC(C)=O)C(=O)NCCCOCCOCCOCCCN*)C1=O; Succinimide(1-Et,3-yl) = CCN1C(=O)CC(*)C1=O; Suc = O=C(CCC(=O)[*:2])[*:1]
TEST_READOUT: % Activity (%)
Write down the numeric answer in % and omit the unit.

[[record]]
compound = "CC(=O)N[C@@H](CSCC(=O)O[C@H]1CC[C@@]2(C)C(=CC[C@H]3[C@@H]4CC[C@H]([C@H](C)CCCC(C)C)[C@@]4(C)CC[C@@H]32)C1)C(=O)NCC(=O)N[C@@H](Cc1ccc(O)cc1)C(=O)N[C@@H](Cc1ccccc1)C(=O)N[C@@H](CC(C)C)C(=O)N[C@@H](Cc1ccccc1)C(=O)N[C@@H](CCCNC(=N)N)C(=O)N1CCC[C@H]1C(=O)N[C@@H](CCCNC(=N)N)C(=O)N[C@@H](CC(N)=O)C(N)=O [NMU11] (Ac-C(X1)GYFLFRPRN-NH2)"
result_number = 70.5

[[record]]
compound = "CCN1C(=O)CC(SC[C@H](NC(C)=O)C(=O)NCCCOCCOCCOCCCNC(=O)CCC(=O)N[C@@H](Cc2ccccc2)C(=O)N[C@@H](CC(C)C)C(=O)N[C@@H](Cc2ccccc2)C(=O)N[C@@H](CCCNC(=N)N)C(=O)N2CCC[C@H]2C(=O)N[C@@H](CCCNC(=N)N)C(=O)N[C@@H](CC(N)=O)C(N)=O)C1=O (stereo partly shown) [NMU15, Ac-C1-Ttds-FLFRPRN-CONH2] ({X2-Suc}-FLFRPRN-NH2)"
result_number = 100

[[record]]
compound = "CCN1C(=O)CC(SC[C@H](NC(C)=O)C(=O)N[C@@H](C)C(=O)N[C@@H](CO)C(=O)N[C@@H](CCC(N)=O)C(=O)N[C@@H](CO)C(=O)N[C@@H](CCCNC(=N)N)C(=O)NCC(=O)N[C@@H](Cc2ccc(O)cc2)C(=O)N[C@@H](Cc2ccccc2)C(=O)N[C@@H](CC(C)C)C(=O)N[C@@H](Cc2ccccc2)C(=O)N[C@@H](CCCNC(=N)N)C(=O)N2CCC[C@H]2C(=O)N[C@@H](CCCNC(=N)N)C(=O)N[C@@H](CC(N)=O)C(N)=O)C1=O (stereo partly shown) [NMU17] (Ac-C(Succinimide(1-Et,3-yl))ASQSRGYFLFRPRN-NH2)"
result_number = 100


Now consider the entry below.
Field % Activity (system: mouse NMUR2 (Mus musculus)) for entry CCN1C(=O)CC(SC[C@H](NC(C)=O)C(=O)NCC(=O)N[C@@H](Cc2ccc(O)cc2)C(=O)N[C@@H](Cc2ccccc2)C(=O)N[C@@H](CC(C)C)C(=O)N[C@@H](Cc2ccccc2)C(=O)N[C@@H](CCCNC(=N)N)C(=O)N2CCC[C@H]2C(=O)N[C@@H](CCCNC(=N)N)C(=O)N[C@@H](CC(N)=O)C(N)=O)C1=O (stereo partly shown) [NMU6] (Ac-C(Succinimide(1-Et,3-yl))GYFLFRPRN-NH2) = 100
